- Experimental System: ATP-dependent Clp protease proteolytic subunit (Bacillus subtilis (strain 168)) (UniProt P80244)
- Assay Procedure: qHTS Assay for Activators of ClpP; note: the source files actives as falling curves though it sought activators and does not explain the sign; nearly all actives have a fitted effect of over 65% in size
- Setup Conditions: purified B. subtilis ClpP, FRET peptide cleavage, 20 min; series mostly up to 57.5 µM
The campaign covered roughly 340,000 compounds. About 6,400 (1.9%) were called active. Another 4% or so got no clear call; they are omitted. Calls come from the whole dose curve; as a rule, active = well fitted falling curve with a large enough effect; inconclusive = small, poorly fitted or top-dose-only effect; inactive = no such curve, though single readings can be large or run the other way. Shown is part of a subset that was picked to be rich in actives.
Answer with one of the outcomes given here: true for active, false for inactive

Worked examples, 4 molecules total:
O=C(Cn1nc(C(F)(F)F)c2c1CCC2)NCc1ccc(F)cc1 ... false
COc1ccccc1CNC(=O)c1cc(-c2cc(F)ccc2OC)n[nH]1 ... false
COc1ccc2c(c1)C(C)=CC(C)(C)N2C(=O)CNCc1ccc2c(c1)OCO2 ... false
CCn1nc(C(=O)NNS(=O)(=O)c2cc(/C=C/C(=O)O)cc(OC)c2OC)c2ccccc2c1=O ... true

[in] Which outcome was entered for the molecule `CC1=CC(C)(C)N(C(=O)CSc2nnc(-c3ccccc3)o2)c2ccc(C)cc21` in this test?
[out] false

[in] Which outcome was entered for the molecule `Cc1cc(NC(=O)Cn2nc(C(F)(F)F)c3c2CCCC3)no1` in this test?
[out] true

[in] Which outcome was entered for the molecule Cc1ccc(-c2cnc(C(O)c3cccc(C)c3C)[nH]2)cc1 (stereo not given) in this test?
[out] false

[in] Which outcome was entered for the molecule CCCCc1ccc(S(=O)(=O)NC(=O)C2(C)CCN2C(=O)c2ccccc2)cc1 (stereo not given) in this test?
[out] false

[in] Which outcome was entered for the molecule COc1cccc(C(NC(C)=O)c2nc(-c3ccccc3OC)cs2)c1 (stereo not given) in this test?
[out] false

[in] Which outcome was entered for the molecule Cc1ccc(F)c(S(=O)(=O)NC(=O)C2(C)CCN2C(=O)c2ccco2)c1 (stereo not given) in this test?
[out] false

###

- Experimental System: ATP-dependent Clp protease proteolytic subunit (Bacillus subtilis (strain 168)) (UniProt P80244)
- Assay Procedure: qHTS Assay for Activators of ClpP; note: potency is the fitted concentration of half-maximal effect; note: the source files actives as falling curves though it sought activators and does not explain the sign; nearly all actives have a fitted effect of over 65% in size
- Setup Conditions: purified B. subtilis ClpP, FRET peptide cleavage, 20 min; series mostly up to 57.5 µM
- Text: The Clp protease proteolytic subunit (ClpP) is the core unit of the Clp complex belonging to the peptidase family S14 that hydrolyzes protein into small peptides in the presence of ATP and magnesium. It is ubiquitously expressed and is the major protease in bacteria. […] Unlike common antibiotics that simply interfere with the essential enzyme activity, ADEP binding activates the ClpP core in the absence of the regulatory Clp-ATPases leading to uncontrolled proteolysis and eventually cell death. […]
About 6,400 (1.9%) of roughly 340,000 compounds were called active. Inconclusive results (about 4%) are left out. The list comes from a sample in which actives are over-represented; it also holds close analogues and randomly drawn compounds.
Test Readout: Potency

CN(C(=O)CSc1nncc2ccccc12)C1CCCCC1 ... inactive
Cc1c(C(=O)NCc2ccc(C#N)cc2)sc(=O)n1Cc1ccc(C(=O)N(C)C)cc1 ... inactive
Cc1ccccc1S(=O)(=O)NC(=O)C1(C)CCN1C(=O)Cc1ccc(Cl)cc1Cl (stereo not given) ... inactive
Cc1ccc2[nH]c(=O)c(CN(CCCN(C)C)C(=O)Nc3cccc(Cl)c3)cc2c1 ... inactive
COc1cccc(CN2CCC(C(=O)NC(c3ccc4c(c3)OCO4)c3ccccn3)CC2)c1 (stereo not given) ... inactive

Value of Potency reported for the molecule `COC(=O)c1ccc(Sc2ccc(F)cc2)c(N)c1` is 28.2 µM (active)

Value of Potency reported for the molecule `COC(=O)[C@]12CCCCC=C1N(Cc1ccc3c(c1)OCO3)C(=O)[C@H](CC(=O)NCc1cccs1)C2` is inactive

Value of Potency reported for the molecule `CN(C(=O)c1cc2c(=O)n3ccccc3nc2s1)C1CCCCC1` is 3.16 µM (active)

Value of Potency reported for the molecule `COc1cccc(NC(=O)CN2CCN(c3nc(-c4cccc(OC)c4)cs3)CC2)c1` is 17.8 µM (active)

Value of Potency reported for the molecule `COc1cc2cc(CN(CCN3CCCC3)C(=O)Nc3ccccc3Cl)c(=O)[nH]c2cc1OC` is 3.16 µM (active)
